# EXPERIMENTAL_TARGET: Melanopsin (Homo sapiens, UniProt Q9UHM6)
# Construct: V2 tail
# Sequence (Q9UHM6 whole entry): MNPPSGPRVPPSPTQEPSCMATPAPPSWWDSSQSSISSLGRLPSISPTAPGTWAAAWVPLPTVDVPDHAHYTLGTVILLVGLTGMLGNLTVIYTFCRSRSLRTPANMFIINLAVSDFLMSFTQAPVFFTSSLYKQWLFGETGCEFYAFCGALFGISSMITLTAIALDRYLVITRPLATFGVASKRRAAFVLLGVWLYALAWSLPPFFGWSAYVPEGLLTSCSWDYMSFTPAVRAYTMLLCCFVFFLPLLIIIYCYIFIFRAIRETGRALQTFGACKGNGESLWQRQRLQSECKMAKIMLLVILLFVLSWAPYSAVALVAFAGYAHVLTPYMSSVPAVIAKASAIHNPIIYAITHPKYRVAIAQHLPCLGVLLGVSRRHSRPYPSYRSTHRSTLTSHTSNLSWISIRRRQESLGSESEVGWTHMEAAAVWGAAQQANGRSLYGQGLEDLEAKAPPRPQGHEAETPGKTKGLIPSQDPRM
# PROTOCOL: Melanopsin (OPN4) Presto-Tango luciferase screen
# CONDITION_NOTES: HTLA cells, LED light, agonist alone, read-out: EC50 of receptor activation by the ligand
METRIC: EC50

Jot down EC50 (Melanopsin (Homo sapiens, UniProt Q9UHM6)) of CC1=C(/C=C/C(C)=C\C=C\C(C)=C\C=O)C(C)(C)CCC1 [9-cis-Retinol] .
~250 nM

----------
# EXPERIMENTAL_TARGET: AVPR1a (human vasopressin 1a receptor, V1AR) (Homo sapiens, UniProt P37288)
# Construct: V2 tail; expressed in transfected cells; host or cells: HTLA cells (HEK293 cell line with tTA-dependent luciferase reporter and β-arrestin2-TEV fusion)
# Sequence (P37288 whole entry, the tested form may be a part): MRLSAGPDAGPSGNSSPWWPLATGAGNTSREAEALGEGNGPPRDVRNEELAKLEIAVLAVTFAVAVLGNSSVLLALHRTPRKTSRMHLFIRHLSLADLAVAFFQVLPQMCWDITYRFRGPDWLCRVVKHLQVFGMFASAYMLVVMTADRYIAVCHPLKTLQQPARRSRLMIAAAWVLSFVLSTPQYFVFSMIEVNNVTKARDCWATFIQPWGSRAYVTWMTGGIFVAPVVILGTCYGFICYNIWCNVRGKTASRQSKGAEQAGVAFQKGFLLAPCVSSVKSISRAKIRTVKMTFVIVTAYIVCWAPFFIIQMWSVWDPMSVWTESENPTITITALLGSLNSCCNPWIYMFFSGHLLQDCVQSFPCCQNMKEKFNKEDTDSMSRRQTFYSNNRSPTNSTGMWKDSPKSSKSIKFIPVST
# PROTOCOL: AVPR1a Presto-Tango luciferase screen
# Assay type: cell-based
# CONDITION_NOTES: 5 nM Arginine Vasopressin, 16 hrs illumination (FIG. 9); inhibitor; read-out: EC50 (allosteric inhibition of AVPR1a, ratio of luciferase activity over positive control)
# Protocol: Presto-Tango Assay: Empty Tango plasmid was generated from Addgene plasmid #66225. Melanopsin was amplified by pcr from pAAV-GFAP104-melanopsin-mCherry (Addgene plasmid #122630) and AVPR1a from hV1aR-GFP (Addgene plasmid #67846) and cloned to generate OPN4- and AVPR1a-Tango plasmid. […] Luciferase activity was measured using Bright-Glo Luciferase (Promega #E2160) assay. […]
METRIC: pIC50
Please note pIC50 is a logarithmic value: minus log10 of concentration in mol/L. Answer with that number alone.

Query pIC50 for Cc1ccc2[nH]cc(CCNC(=O)Cn3c(=O)c(=O)n(Cc4ccccc4)c4ccccc43)c2c1 [MolPort-007-880-661]
6.44
